Attribution: patent US20250304551A1

IC50, Human KIF18A (amino acid sequence 1-417) (Homo sapiens, UniProt Q8NI77): measured values

# MOLECULE, MEASURED ON, CENSORING SIGN, IC50 / µM
rows = [
    ("O=S(=O)(CCO)Nc1ccc(C=C(F)c2cc(N3CCC(F)(F)CC3)c3ncccc3c2)c(N2CCC3(CC2)CC3)c1", "Human KIF18A (amino acid sequence 1-417) (Homo sapiens, UniProt Q8NI77)", ">", 3),
    ("Cc1cc(-c2cn(-c3ccc(NS(=O)(=O)CCO)cc3N3CCC4(CC3)CC4)nn2)nc(N2CC3CC2CO3)n1 (stereo not drawn)", "Human KIF18A (amino acid sequence 1-417) (Homo sapiens, UniProt Q8NI77)", "=", 0.064),
    ("Cc1cc(-c2cn(-c3ccc(NS(=O)(=O)C(C)(C)CO)cc3N3CCC4(CC3)CC4)nn2)nc(N2CCC(F)(F)CC2)n1", "Human KIF18A (amino acid sequence 1-417) (Homo sapiens, UniProt Q8NI77)", "=", 0.162),
    ("Cc1cc(-c2cn(-c3ccc(NS(=O)(=O)CCO)cc3N3CCC4(CC3)CC4)nn2)cc(N2CCC(F)(F)CC2)c1[N+](=O)[O-]", "Human KIF18A (amino acid sequence 1-417) (Homo sapiens, UniProt Q8NI77)", ">", 3),
    ("O=S(=O)(CCO)Nc1ccc(-n2cc(-c3cc(NC4CCOCC4)nc(N4CCC(F)(F)CC4)n3)nn2)c(N2CCC3(CC2)CC3)c1", "Human KIF18A (amino acid sequence 1-417) (Homo sapiens, UniProt Q8NI77)", "=", 0.779),
    ("O=S(=O)(CCO)Nc1ccc(-c2nnc(-c3cc4cccnc4c(N4CCC(F)(F)CC4)n3)o2)c(N2CCC3(CC2)CC3)c1", "Human KIF18A (amino acid sequence 1-417) (Homo sapiens, UniProt Q8NI77)", "=", 0.048),
]

====

MEASURED ON: Human KIF18A (amino acid sequence 1-417) (Homo sapiens, UniProt Q8NI77)
Sequence (Q8NI77 1-417): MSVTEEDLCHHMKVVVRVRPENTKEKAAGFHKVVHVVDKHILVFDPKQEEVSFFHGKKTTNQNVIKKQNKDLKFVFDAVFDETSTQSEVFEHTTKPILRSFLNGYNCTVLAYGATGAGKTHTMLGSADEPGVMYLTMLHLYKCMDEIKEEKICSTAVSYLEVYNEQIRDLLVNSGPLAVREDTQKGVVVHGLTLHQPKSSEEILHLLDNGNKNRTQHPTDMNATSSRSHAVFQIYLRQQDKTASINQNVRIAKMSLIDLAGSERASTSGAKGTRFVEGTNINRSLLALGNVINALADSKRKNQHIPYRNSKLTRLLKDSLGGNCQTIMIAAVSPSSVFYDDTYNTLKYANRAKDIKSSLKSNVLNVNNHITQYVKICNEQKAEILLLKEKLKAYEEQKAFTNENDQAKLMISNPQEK
Sequence (Q2XVP4 whole entry partner): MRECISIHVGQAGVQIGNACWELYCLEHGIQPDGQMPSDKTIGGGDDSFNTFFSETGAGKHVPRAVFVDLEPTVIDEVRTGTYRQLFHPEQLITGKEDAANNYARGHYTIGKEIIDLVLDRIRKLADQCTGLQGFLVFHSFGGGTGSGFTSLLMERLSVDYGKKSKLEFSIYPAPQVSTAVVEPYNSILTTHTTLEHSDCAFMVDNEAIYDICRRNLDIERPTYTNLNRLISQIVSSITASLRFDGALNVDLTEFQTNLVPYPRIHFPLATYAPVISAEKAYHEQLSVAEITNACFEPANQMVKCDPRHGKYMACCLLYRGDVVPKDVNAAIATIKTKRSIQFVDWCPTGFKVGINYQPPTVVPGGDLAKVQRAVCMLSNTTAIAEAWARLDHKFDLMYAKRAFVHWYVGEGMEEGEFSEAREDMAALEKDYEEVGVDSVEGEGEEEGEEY
Sequence (P02554 whole entry partner): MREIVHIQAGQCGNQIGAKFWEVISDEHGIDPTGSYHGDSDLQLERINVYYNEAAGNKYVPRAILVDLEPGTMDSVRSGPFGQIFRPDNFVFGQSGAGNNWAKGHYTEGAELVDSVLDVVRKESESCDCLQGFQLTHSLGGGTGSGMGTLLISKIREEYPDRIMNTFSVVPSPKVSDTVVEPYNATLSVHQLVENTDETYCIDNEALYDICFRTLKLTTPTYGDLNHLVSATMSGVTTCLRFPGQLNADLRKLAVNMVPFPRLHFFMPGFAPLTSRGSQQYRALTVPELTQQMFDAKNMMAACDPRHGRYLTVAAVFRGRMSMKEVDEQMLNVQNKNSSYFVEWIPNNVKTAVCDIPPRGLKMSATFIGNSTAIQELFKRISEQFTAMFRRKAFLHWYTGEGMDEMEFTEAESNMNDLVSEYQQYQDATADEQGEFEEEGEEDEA
As shown below, each of these compounds has a reported IC50 value.

# STRUCTURE NOTATION, IC50 (nM)
measured = [
    ("Cc1cc(-c2cn(-c3ccc(NS(=O)(=O)CCO)cc3N3CCC4(CC3)CC4)nn2)nc(N2CCC(F)(F)CC2)n1", 56),
    ("Cc1cc(-c2nnc(-c3ccc(NS(=O)(=O)CCO)cc3N3CCC4(CC3)CC4)o2)cc(N2CCC(F)(F)CC2)n1", 51),
    ("Cc1cc(-n2cc(-c3ccc(NS(=O)(=O)CCO)cc3N3CCC4(CC3)CC4)nn2)cc(N2CCC(F)(F)CC2)n1", 278),
    ("Cc1cc(-c2cn(-c3ccc(NS(=O)(=O)CCO)cc3N3CCC(=C(F)F)CC3)nn2)nc(N2CCC(F)(F)CC2)n1", 118),
    ("Cc1cc(-c2cn(-c3ccc(NS(=O)(=O)CCO)cc3N3CCC4(CC3)CC4)nn2)nc(N2C3CCC2COC3)n1", 22),
    ("COc1cc(-c2cn(-c3ccc(NS(=O)(=O)CCO)cc3N3CCC4(CC3)CC4)nn2)nc(N2[C@H](C)COC[C@@H]2C)n1", 296),
    ("Cc1cc(-c2cn(-c3ccc(NS(=O)(=O)CCO)cc3N3CCC4(CC3)CC4)nn2)nc(N2[C@H](C)CC(F)(F)C[C@@H]2C)n1", 1050),
]
